Sourced from patent US20190322676A1

target: human CGT (ceramide galactosyltransferase), CHO/CGT lysate (Homo sapiens); construct: Full-length human CGT cDNA was cloned into the BamH1/Xho1 site of pcDNA3.1 (+); expressed in transfected cells; host or cells: Chinese hamster ovary (CHO) cells; lysate prepared with M-PER; experiment: CGT enzyme assay, RapidFire/MS/MS readout (Table 1 ranges with one asterisk *); format: biochemical; settings: RapidFire method (range with one asterisk *)
Where a name gives a salt, the structure may show the parent alone.
attribute measured: IC50

molecule=CCCCOc1ccc(C(F)(F)[C@H](C(=O)N2CCC(N)CC2)N(C)S(=O)(=O)c2ccc(OCC3CCCCC3)cc2)cc1 assayed_target="human CGT (ceramide galactosyltransferase), CHO/CGT lysate (Homo sapiens)" attribute_measured=IC50 reading="10 to 30 µM"
molecule="NC1CCN(C(=O)[C@H](NS(=O)(=O)c2ccc(OCC3CCCCC3)cc2)C(F)(F)c2ccc(Cl)cc2)CC1 [Compound 30-2, trifluoroacetate]" assayed_target="human CGT (ceramide galactosyltransferase), CHO/CGT lysate (Homo sapiens)" attribute_measured=IC50 reading="10 to 30 µM"
molecule="NC1CC2CCC(C1)N2C(=O)[C@@H](NS(=O)(=O)c1ccc2cc(OC3CCCC3)ccc2c1)C(F)(F)c1ccc(Br)cc1 (stereo partly drawn)" assayed_target="human CGT (ceramide galactosyltransferase), CHO/CGT lysate (Homo sapiens)" attribute_measured=IC50 reading="< 1 µM"
molecule=NC1CCN(C(=O)[C@H](NS(=O)(=O)c2ccc3cc(OC4CCCC4)ccc3c2)C(F)(F)c2ccc(C(F)(F)F)cc2)CC1 assayed_target="human CGT (ceramide galactosyltransferase), CHO/CGT lysate (Homo sapiens)" attribute_measured=IC50 reading="1 to 10 µM"
molecule="CN([C@H](C(=O)N1C2CCC1CC(N)C2)C(F)(F)c1ccc(Br)cc1)S(=O)(=O)c1ccc2cc(OC3CCCCC3)ccc2c1 (stereo partly drawn) [Compound 37-1, trifluoroacetate]" assayed_target="human CGT (ceramide galactosyltransferase), CHO/CGT lysate (Homo sapiens)" attribute_measured=IC50 reading="< 1 µM"

// sample NCC1CCN(C(=O)[C@@H](NS(=O)(=O)c2ccc3cc(OC4CCCC4)ccc3c2)C(F)(F)c2ccc(Br)cc2)CC1 [Compound 57-1, trifluoroacetate] , its IC50 was < 1 µM

// sample NC1CC2CCC(C1)N2C(=O)[C@@H](NC(=O)C(=O)c1ccc2cc(OC3CCCC3)ccc2c1)C(F)(F)c1ccc(-c2ccc(Cl)cc2)cc1 (stereo partly drawn) [Compound 133-1, trifluoroacetate] , its IC50 was 1 to 10 µM

// sample COc1cc(C(F)(F)[C@@H](NS(=O)(=O)c2ccc(OCC3CCCCC3)cc2)C(=O)N2C3CCC2CC(N)C3)ccc1Br (stereo partly drawn) , its IC50 was 1 to 10 µM

// sample NC1CCN(C(=O)[C@@H](NS(=O)(=O)c2ccc3cc(OC4CCCC4)ccc3c2)C(F)(F)c2ccc(-c3ccc(Cl)s3)cc2)CC1 [Compound 112-1, trifluoroacetate] , its IC50 was < 1 µM

// sample CN([C@H](C(=O)N1CCC(N)CC1)C(F)(F)c1ccc(Cl)cc1)S(=O)(=O)c1ccc2cc(OC3CCCC3)ccc2c1 , its IC50 was < 1 µM

// sample CN([C@H](C(=O)N1C2CCC1CC(N)C2)C(F)(F)c1cccc(Br)c1)S(=O)(=O)c1ccc2cc(OC3CCCC3)ccc2c1 (stereo partly drawn) , its IC50 was 1 to 10 µM

====

molecular target: human CGT (ceramide galactosyltransferase), CHO/CGT lysate (Homo sapiens, UniProt Q16880); construct: Full-length human CGT cDNA was cloned into the BamH1/Xho1 site of pcDNA3.1 (+); expressed in transfected cells; host or cells: Chinese hamster ovary (CHO) cells; lysate prepared with M-PER; experiment: CGT enzyme assay, LC-MS/MS readout (Table 1 ranges without asterisk); assay type: biochemical; conditions: LC-MS/MS method (range without asterisk)
Counter-ions that a name gives are not always drawn.
attribute measured: IC50

Solved cases below.
compound="NC1CC2CCC(C1)N2C(=O)[C@H](NS(=O)(=O)c1ccc(OCCC2CCCCC2)cc1)C(F)(F)c1ccc(Br)cc1 (stereo partly drawn) [Compound 26-2, trifluoroacetate]" attribute_measured=IC50 reading="30 to 100 µM"
compound="CC(C)COc1ccc2cc(S(=O)(=O)N[C@H](C(=O)N3C4CCC3CC(N)C4)C(F)(F)c3ccc(Br)cc3)ccc2c1 (stereo partly drawn)" attribute_measured=IC50 reading="1 to 10 µM"

Next:
// sample CC(C)Oc1ccc2cc(S(=O)(=O)N[C@@H](C(=O)N3C4CCC3CC(N(C)C)C4)C(F)(F)c3ccc(Br)cc3)ccc2c1 (stereo partly drawn) , its IC50 was 30 to 100 µM

====

Measured IC50, listed per entry.
Target: human CGT (ceramide galactosyltransferase), CHO/CGT lysate (Homo sapiens)
Construct: Full-length human CGT cDNA was cloned into the BamH1/Xho1 site of pcDNA3.1 (+); expressed in transfected cells; host or cells: Chinese hamster ovary (CHO) cells; lysate prepared with M-PER
Sequence (Q16880 21-541): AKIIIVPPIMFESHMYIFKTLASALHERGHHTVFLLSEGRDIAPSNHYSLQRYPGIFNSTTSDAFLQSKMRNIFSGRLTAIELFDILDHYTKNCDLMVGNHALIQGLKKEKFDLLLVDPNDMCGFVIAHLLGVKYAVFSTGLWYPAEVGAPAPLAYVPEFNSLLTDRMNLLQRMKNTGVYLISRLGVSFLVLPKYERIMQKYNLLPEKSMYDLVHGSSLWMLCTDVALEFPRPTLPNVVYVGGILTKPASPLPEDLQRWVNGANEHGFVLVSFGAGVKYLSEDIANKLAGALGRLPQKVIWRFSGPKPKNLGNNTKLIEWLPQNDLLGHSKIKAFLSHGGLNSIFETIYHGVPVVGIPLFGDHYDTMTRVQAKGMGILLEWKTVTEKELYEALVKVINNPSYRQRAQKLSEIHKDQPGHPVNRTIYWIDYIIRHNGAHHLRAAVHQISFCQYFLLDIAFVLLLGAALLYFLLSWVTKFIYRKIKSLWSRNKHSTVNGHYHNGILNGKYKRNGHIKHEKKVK
Test: CGT enzyme assay, RapidFire/MS/MS readout (Table 1 ranges with one asterisk *)
Assay type: biochemical
Settings: RapidFire method (range with one asterisk *)
Structures can show the parent of a compound that is named as a salt.

Solved cases below.
compound="CN([C@@H](C(=O)N1CCC(N)CC1)C(F)(F)c1ccc(Oc2ccccc2)cc1)S(=O)(=O)c1ccc(OCC2CCCCC2)cc1 [Compound 64-2]" reading="10 to 30 µM"
compound="CCCCOc1ccc(C(F)(F)[C@H](NS(=O)(=O)c2ccc3cc(OC4CCCC4)ccc3c2)C(=O)N2C3CCC2CC(N)C3)cc1 (stereo partly drawn) [Compound 82-1, trifluoroacetate]" reading="< 1 µM"
compound="CC(C)Oc1ccc2cc(S(=O)(=O)N(C)[C@@H](C(=O)N3C4CCC3CC(N)C4)C(F)(F)c3ccc(Br)cc3)ccc2c1 (stereo partly drawn) [Compound 46-2, trifluoroacetate]" reading="30 to 100 µM"

The observed IC50 for NC1CC2CCC(C1)N2C(=O)[C@@H](NS(=O)(=O)c1ccc2cc(OC3CCCC3)ccc2c1)C(F)(F)c1ccc(I)cc1 (stereo partly drawn) [Compound 42-1, trifluoroacetate] when tested with human CGT (ceramide galactosyltransferase), CHO/CGT lysate (Homo sapiens) stands at < 1 µM

The observed IC50 for NC1CCN(C(=O)[C@H](NC(=O)C(=O)c2ccc(OCC3CCCCC3)cc2)C(F)(F)c2ccc(-c3ccc(Cl)cc3)cc2)CC1 [Compound 134-2, trifluoroacetate] when tested with human CGT (ceramide galactosyltransferase), CHO/CGT lysate (Homo sapiens) stands at 30 to 100 µM

The observed IC50 for CC(C)Oc1ccc2cc([C@@H](O)C(=O)N[C@@H](C(=O)N3C4CCC3CC(N)C4)C(F)(F)c3ccc(Br)cc3)ccc2c1 (stereo partly drawn) [Compound 19-4, trifluoroacetate] when tested with human CGT (ceramide galactosyltransferase), CHO/CGT lysate (Homo sapiens) stands at 30 to 100 µM

====

Measured IC50, listed per entry.
Molecular target: human CGT (ceramide galactosyltransferase), CHO/CGT lysate (Homo sapiens)
Construct: Full-length human CGT cDNA was cloned into the BamH1/Xho1 site of pcDNA3.1 (+); expressed in transfected cells; host or cells: Chinese hamster ovary (CHO) cells; lysate prepared with M-PER
Sequence (Q16880 21-541): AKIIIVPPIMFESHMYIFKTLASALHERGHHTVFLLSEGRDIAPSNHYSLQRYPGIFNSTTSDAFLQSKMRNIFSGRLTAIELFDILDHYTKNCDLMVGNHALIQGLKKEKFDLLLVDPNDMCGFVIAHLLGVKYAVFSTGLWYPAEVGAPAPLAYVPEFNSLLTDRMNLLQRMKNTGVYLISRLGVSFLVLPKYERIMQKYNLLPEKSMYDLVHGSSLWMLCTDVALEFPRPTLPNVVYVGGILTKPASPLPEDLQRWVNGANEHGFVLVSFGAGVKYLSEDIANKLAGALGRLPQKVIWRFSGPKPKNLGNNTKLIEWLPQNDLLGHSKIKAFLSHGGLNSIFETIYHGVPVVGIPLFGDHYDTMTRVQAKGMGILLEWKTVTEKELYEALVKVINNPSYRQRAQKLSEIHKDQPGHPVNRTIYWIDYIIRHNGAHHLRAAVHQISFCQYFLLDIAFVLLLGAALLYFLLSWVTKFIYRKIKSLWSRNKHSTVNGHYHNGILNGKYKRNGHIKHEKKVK
Assay: CGT enzyme assay, RapidFire/MS/MS readout with 0.01% Tween added (Table 1 ranges with two asterisks **)
Assay type: biochemical
Conditions: CGT enzymatic assay; range with two asterisks (**): RapidFire/MS/MS method with 0.01% Tween added
Counter-ions that a name gives are not always drawn.

Solved cases below.
compound=N[C@H]1CCN(C(=O)[C@@H](NS(=O)(=O)c2ccc3cc(OC4CCCC4)ccc3c2)C(F)(F)c2ccc(-c3ccc(Cl)cc3)cc2)C[C@@H]1F reading="1 to 10 µM"
compound="NC1CC2CCC(C1)N2C(=O)[C@@H](NC(=O)C(=O)c1ccc2cc(OC3CCCC3)ccc2c1)C(F)(F)c1ccc2cc(Br)ccc2c1 (stereo partly drawn) [Compound 160-1, trifluoroacetate]" reading="10 to 30 µM"

// sample NC1CC2CCC(C1)N2C(=O)[C@H](NS(=O)(=O)c1ccc2cc(OC3CC3)ccc2c1)C(F)(F)c1ccc(Br)cc1 (stereo partly drawn) [Compound 177-2, trifluoroacetate] , its IC50 was 10 to 30 µM
